# Test system: COLO206
# PROTOCOL_TEXT: Antiproliferation MTT assay, COLO206
# Type: cell-based
# MEASUREMENT_CONTEXT: Colon Cancer
Measured IC50 values are reported for all entries that follow.
# unit: µM | format: bare number

Input line: Consider the compound Nc1ncc(-c2cn3cc(CN4CCN(c5ncc(C(=O)NO)cn5)CC4)nc3c(N3CCOCC3)n2)cn1 and give its recorded IC50.
Output line: 0.56

Input line: Consider the compound CN(Cc1cn2cc(-c3cnc(N)nc3)nc(N3CCOCC3)c2n1)c1ncc(C(=O)NO)cn1 and give its recorded IC50.
Output line: 0.15

Input line: Consider the compound Nc1ncc(-c2cn3cc(CNc4ncc(C(=O)NO)cn4)nc3c(N3CCOCC3)n2)cn1 and give its recorded IC50.
Output line: 5.94

* * *

# Tested on: HCT 116p53 ++
# PROTOCOL_TEXT: Antiproliferation MTT assay, HCT 116
# Assay type: cell-based
# MEASUREMENT_CONTEXT: Homo sapiens, HCT-116, Colon Cancer; first of two columns with the same head (c3)
MEASUREMENT_TYPE: IC50 (nM)
# unit: nM | format: bare number

See these solved cases before continuing.
STRUCTURE_AS_SMILES | SYSTEM_UNDER_TEST | MEASUREMENT_TYPE | MEASURED
Nc1ncc(-c2cn3cc(CNc4ncc(C(=O)NO)cn4)nc3c(N3CCOCC3)n2)cn1 | HCT 116p53 ++ | IC50 | 6710
Nc1ncc(-c2cn3cc(CN4CCN(c5ncc(C(=O)NO)cn5)CC4)nc3c(N3CCOCC3)n2)cn1 | HCT 116p53 ++ | IC50 | 1160

Input line: Consider the molecule CN(Cc1cn2cc(-c3cnc(N)nc3)nc(N3CCOCC3)c2n1)c1ncc(C(=O)NO)cn1 and give its recorded IC50.
Output line: 410

* * *

Measured pIC50 values are reported for all entries that follow.
# SYSTEM_UNDER_TEST: PI3K (p110α/p85α (Homo sapiens, UniProt P42336))
# Sequence (P42336 whole entry): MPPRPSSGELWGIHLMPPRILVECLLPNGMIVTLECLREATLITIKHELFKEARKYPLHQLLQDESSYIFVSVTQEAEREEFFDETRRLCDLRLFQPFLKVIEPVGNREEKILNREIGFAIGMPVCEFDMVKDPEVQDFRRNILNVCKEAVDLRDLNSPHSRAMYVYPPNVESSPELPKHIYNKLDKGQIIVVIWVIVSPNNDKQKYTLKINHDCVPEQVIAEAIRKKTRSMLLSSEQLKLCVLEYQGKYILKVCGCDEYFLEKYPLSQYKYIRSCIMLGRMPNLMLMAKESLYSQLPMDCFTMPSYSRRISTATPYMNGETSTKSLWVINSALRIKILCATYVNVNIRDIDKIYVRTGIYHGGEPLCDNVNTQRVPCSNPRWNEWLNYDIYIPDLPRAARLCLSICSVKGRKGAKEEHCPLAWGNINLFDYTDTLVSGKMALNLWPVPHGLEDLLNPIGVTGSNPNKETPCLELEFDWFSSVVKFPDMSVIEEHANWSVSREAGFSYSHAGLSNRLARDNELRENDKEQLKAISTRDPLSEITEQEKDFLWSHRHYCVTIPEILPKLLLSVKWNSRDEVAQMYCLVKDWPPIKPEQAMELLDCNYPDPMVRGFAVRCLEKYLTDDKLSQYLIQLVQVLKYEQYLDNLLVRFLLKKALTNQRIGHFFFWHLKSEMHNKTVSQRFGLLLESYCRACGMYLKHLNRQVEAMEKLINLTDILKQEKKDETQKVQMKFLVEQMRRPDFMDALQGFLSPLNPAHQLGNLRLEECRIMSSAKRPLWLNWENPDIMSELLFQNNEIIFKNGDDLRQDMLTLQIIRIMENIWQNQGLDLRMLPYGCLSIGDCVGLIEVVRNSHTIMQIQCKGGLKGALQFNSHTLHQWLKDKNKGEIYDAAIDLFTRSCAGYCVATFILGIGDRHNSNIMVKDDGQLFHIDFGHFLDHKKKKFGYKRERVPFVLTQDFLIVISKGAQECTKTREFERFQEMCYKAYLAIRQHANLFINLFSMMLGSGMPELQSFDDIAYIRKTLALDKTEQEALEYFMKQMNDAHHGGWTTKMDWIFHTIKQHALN
# Sequence (P27986 whole entry partner): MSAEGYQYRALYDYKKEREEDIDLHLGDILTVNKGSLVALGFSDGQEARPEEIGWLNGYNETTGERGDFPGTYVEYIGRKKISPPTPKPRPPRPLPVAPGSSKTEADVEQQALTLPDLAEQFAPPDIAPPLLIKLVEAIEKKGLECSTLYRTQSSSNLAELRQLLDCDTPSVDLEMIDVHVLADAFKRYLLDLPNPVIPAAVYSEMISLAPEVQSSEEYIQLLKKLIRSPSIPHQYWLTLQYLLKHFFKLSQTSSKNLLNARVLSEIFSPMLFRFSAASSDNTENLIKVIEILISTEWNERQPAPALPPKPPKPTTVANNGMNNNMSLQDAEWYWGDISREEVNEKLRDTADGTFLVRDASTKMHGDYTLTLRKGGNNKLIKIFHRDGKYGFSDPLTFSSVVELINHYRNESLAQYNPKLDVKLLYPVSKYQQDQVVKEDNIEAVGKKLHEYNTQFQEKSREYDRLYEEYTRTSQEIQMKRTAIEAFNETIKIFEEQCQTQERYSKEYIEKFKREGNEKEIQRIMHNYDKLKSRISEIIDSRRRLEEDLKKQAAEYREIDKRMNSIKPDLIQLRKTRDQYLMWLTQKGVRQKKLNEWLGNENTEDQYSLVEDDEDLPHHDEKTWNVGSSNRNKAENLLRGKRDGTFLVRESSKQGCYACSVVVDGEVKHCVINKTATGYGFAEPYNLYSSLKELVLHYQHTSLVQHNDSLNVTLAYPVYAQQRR
# PROTOCOL_TEXT: PI3K activity assay (ADP Hunter Plus)
# MEASUREMENT_CONTEXT: 50 µM ATP, 30 µM PIP2, 1 hour at 25°C; read-out: PI3Kα IC50
# Experimental: The kinase activity was measured by using the commercial ADP Hunter™ Plus assay available from DiscoveRx (#33-016), which is a homogeneous assay to measure the accumulation of ADP, a universal product of kinase activity. […] Reaction was carried out for 1 hour at 25°C. […] Fluorescence counts were read in a Victor instrument (Perkin Elmer) with the recommended settings (544 and 580 nm as excitation and emission wavelengths, respectively). […]
Kindly note that pIC50 refers to -log10 of the concentration in mol/L and answer with the value alone.

See these solved cases before continuing.
MOLECULE | MEASUREMENT_TYPE | MEASURED
Nc1ncc(-c2cn3cc(CNc4ncc(C(=O)NO)cn4)nc3c(N3CCOCC3)n2)cn1 [Final Compound 1] | pIC50 | 8.24
Nc1ncc(-c2cn3cc(CN4CCN(c5ncc(C(=O)NO)cn5)CC4)nc3c(N3CCOCC3)n2)cn1 [Final Compound 2] | pIC50 | 8.49

Input line: Please tell me the measured pIC50 for CN(Cc1cn2cc(-c3cnc(N)nc3)nc(N3CCOCC3)c2n1)c1ncc(C(=O)NO)cn1 [Final Compound 3] ; system: PI3K (p110α/p85α (Homo sapiens, UniProt P42336)).
Output line: 8.12
